system: Jurkat cells; assay: Inhibition of proliferation of Jurkat cells (CellTiter-Glo, 72 hour); format: cell-based, human; settings: Homo sapiens, 10 μM to 316 pM
Listed next: entries and their corresponding IC50.

Sample answers from the record:
> print(dat)
                                   compound  attribute.measured  reported.measurement
1  CN(C)C/C=C/C(=O)N1CCC(C(=O)Nc2cccc(Nc3ncc(Cl)c(-c4c[nH]c5ccccc45)n3)c2)CC1                IC50        500 to 5000 nM
2  C=CC(=O)N1CCCC(C(=O)N[C@H]2CC[C@H](Nc3ncc(Cl)c(-c4c[nH]c5ccccc45)n3)CC2)C1 (stereo partly shown)                IC50        500 to 5000 nM
3  CN(C)CCCC(=O)NCCc1cc2ccc(Nc3ncc(Cl)c(-c4c[nH]c5ccccc45)n3)cc2[nH]1                IC50        500 to 5000 nM
4  C=CC(=O)N1CCN(C(=O)N[C@H]2CCC[C@@H](Nc3ncc(Cl)c(-c4c[nH]c5ccccc45)n3)C2)CC1                IC50        500 to 5000 nM
5  N[C@H]1CC[C@H](C(=O)Nc2cccc(Nc3ncc(Cl)c(-c4c[nH]c5ccccc45)n3)c2)CC1                IC50        500 to 5000 nM

Req: Lab note: need IC50 with Jurkat cells for entry O=C(N[C@@H]1CCC[C@H](Nc2ncc(Cl)c(-c3c[nH]c4ccccc34)n2)C1)C1CCN(C(=O)/C=C/CN2CCOCC2)CC1 , please look it up.
Resp: < 500 nM

Req: And then C=CC(=O)N[C@@H]1CN[C@H](C(=O)N[C@H]2CCC[C@@H](Nc3ncc(Cl)c(-c4c[nH]c5ccccc45)n3)C2)C1 , what is it?
Resp: < 500 nM
